B1: VH:VL chains; a variant is named by its letters at X, in order (parent)
chain 1: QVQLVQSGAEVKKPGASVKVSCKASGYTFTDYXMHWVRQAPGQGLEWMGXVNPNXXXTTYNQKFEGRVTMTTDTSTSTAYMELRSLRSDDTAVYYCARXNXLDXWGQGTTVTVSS
chain 2: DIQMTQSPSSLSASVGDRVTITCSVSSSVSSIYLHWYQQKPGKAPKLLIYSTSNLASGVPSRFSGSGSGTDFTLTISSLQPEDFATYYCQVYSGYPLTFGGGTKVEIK

variants of: B1; assay: yeast display scFab, FACS + sequencing
measurement type: non-specific binding call

The reported non-specific binding call of the variant YTEKGVGV was binds

The reported non-specific binding call of the variant VRTEDSLD was no binding

The reported non-specific binding call of the variant SEARSSLV was no binding

The reported non-specific binding call of the variant FKGRGAAS was binds

The reported non-specific binding call of the variant DARGGSSS was no binding

The reported non-specific binding call of the variant STGTGSGA was no binding

The reported non-specific binding call of the variant DAGKGAVV was no binding

The reported non-specific binding call of the variant YTKRSSGA was binds

The reported non-specific binding call of the variant YKAGDSSD was no binding

The reported non-specific binding call of the variant YREEGDGV was no binding

Further cases:
The reported non-specific binding call of the variant DTEGGSAS was no binding

The reported non-specific binding call of the variant VEGGGDVV was no binding

The reported non-specific binding call of the variant DAAGADWY was no binding

The reported non-specific binding call of the variant SKGRGAVY was binds
